Data credit: ChEMBL document CHEMBL5724914

ASSAY_METHOD_TEXT: The drug is tested on Z-005 corresponding to metagenome with ENA study accession number: PRJEB37062 and ENA sample accession number: ERS12561805 for biotransformation under anaerobic condition. The drug concentrations were measured over 9 timepoints collected between 0 and 24 hours of incubation by liquid-chromatography-coupled mass spectrometry (LC–MS); note: call rule not given here
CONDITION_DESCRIPTION: 2 µM
ENDPOINT_NAME: Bacterial Biotransformation

MOLECULE: COc1ccc([C@@H]2Sc3ccccc3N(CCN(C)C)C(=O)[C@@H]2OC(C)=O)cc1
ENDPOINT_NAME: Bacterial Biotransformation
EXPERIMENTAL_VALUE: Compound NOT metabolized

MOLECULE: CC(N)C12CC3CC(CC(C3)C1)C2 (centres undefined)
ENDPOINT_NAME: Bacterial Biotransformation
EXPERIMENTAL_VALUE: Compound NOT metabolized

MOLECULE: OCCN(CCO)c1nc(N2CCCCC2)c2nc(N(CCO)CCO)nc(N3CCCCC3)c2n1
ENDPOINT_NAME: Bacterial Biotransformation
EXPERIMENTAL_VALUE: Compound metabolized

MOLECULE: COc1ccc2c(c1)c(CC(=O)O)c(C)n2C(=O)c1ccc(Cl)cc1
ENDPOINT_NAME: Bacterial Biotransformation
EXPERIMENTAL_VALUE: Compound NOT metabolized

MOLECULE: COc1cc2nc(N3CCN(C(=O)C4COc5ccccc5O4)CC3)nc(N)c2cc1OC.CS(=O)(=O)O (centres undefined) [DOXAZOSIN MESYLATE]
ENDPOINT_NAME: Bacterial Biotransformation
EXPERIMENTAL_VALUE: Compound metabolized

Summary for this molecule, CN1CCC[C@@H]1CCO[C@](C)(c1ccccc1)c1ccc(Cl)cc1.O=C(O)/C=C/C(=O)O [CLEMASTINE FUMARATE] : Bacterial Biotransformation is Compound NOT metabolized

get_value(item= OC(c1cc(C(F)(F)F)nc2c(C(F)(F)F)cccc12)C1CCCCN1 (centres undefined) , readout=Bacterial Biotransformation) returns Compound NOT metabolized

Entry COc1ccccc1OCCNCC(O)COc1cccc2[nH]c3ccccc3c12 (centres undefined) ; Bacterial Biotransformation = Compound NOT metabolized

Recorded result, CCS(=O)(=O)CCn1c([N+](=O)[O-])cnc1C , Bacterial Biotransformation: Compound metabolized

---

CONDITION_DESCRIPTION: human gut metagenome, 24 h, 2 µM
ENDPOINT_NAME: Bacterial Biotransformation

Below: 6 molecules and their reported Bacterial Biotransformation.
MOLECULE: C[C@@H](c1ncncc1F)[C@](O)(Cn1cncn1)c1ccc(F)cc1F
EXPERIMENTAL_VALUE: Compound metabolized

MOLECULE: CN1[C@@H]2CC[C@H]1C[C@@H](OC(=O)c1c[nH]c3ccccc13)C2
EXPERIMENTAL_VALUE: Compound NOT metabolized

MOLECULE: CC[C@H](C)C(=O)O[C@H]1CCC=C2C=C[C@H](C)[C@H](CC[C@@H]3C[C@@H](O)CC(=O)O3)[C@H]21
EXPERIMENTAL_VALUE: Compound NOT metabolized

MOLECULE: O=C(O)c1cc(/N=N/c2ccc(S(=O)(=O)Nc3ccccn3)cc2)ccc1O
EXPERIMENTAL_VALUE: Compound metabolized

MOLECULE: COc1cc2nc(N3CCN(C(=O)C4CCCO4)CC3)nc(N)c2cc1OC (stereo unspecified)
EXPERIMENTAL_VALUE: Compound NOT metabolized

MOLECULE: CCCN1C[C@H](CSC)C[C@@H]2c3cccc4[nH]cc(c34)C[C@H]21.CS(=O)(=O)O [PERGOLIDE MESYLATE]
EXPERIMENTAL_VALUE: Compound NOT metabolized

Reported Bacterial Biotransformation of CCN(CC)CCNC(=O)c1ccc(NC(C)=O)cc1 [ACECAINIDE] : Compound NOT metabolized

Record summary for CN(C)CCC=C1c2ccccc2COc2ccccc21 [DOXEPIN] : reported Bacterial Biotransformation = Compound NOT metabolized

Reported Bacterial Biotransformation of CCS(=O)(=O)CCn1c([N+](=O)[O-])cnc1C : Compound metabolized

// field: Bacterial Biotransformation; key: Cc1cc(C)cc(OCC2CNC(=O)O2)c1 (stereo unspecified) ; value = Compound NOT metabolized

Documented Bacterial Biotransformation of Br.CN1CCC[C@@H]1Cc1c[nH]c2ccc(CCS(=O)(=O)c3ccccc3)cc12 [ELETRIPTAN HYDROBROMIDE] : Compound NOT metabolized

// field: Bacterial Biotransformation; key: CC[C@@]1(O)C(=O)OCc2c1cc1n(c2=O)Cc2cc3c(CN(C)C)c(O)ccc3nc2-1 ; value = Compound NOT metabolized

Looking up CC(=O)OCC(CCn1cnc2cnc(N)nc21)COC(C)=O , I found its Bacterial Biotransformation recorded as Compound NOT metabolized

Data point: O=C(O)CCC(=O)O.O=C(O[C@H]1CN2CCC1CC2)N1CCc2ccccc2[C@@H]1c1ccccc1 [SOLIFENACIN SUCCINATE] ; Bacterial Biotransformation = Compound NOT metabolized

For reference, reported Bacterial Biotransformation for CNCC[C@H](Oc1cccc2ccccc12)c1cccs1 stands at Compound NOT metabolized

Quick note, Bacterial Biotransformation for CC(C)c1nc(N(C)S(C)(=O)=O)nc(-c2ccc(F)cc2)c1/C=C/[C@@H](O)C[C@@H](O)CC(=O)[O-].CC(C)c1nc(N(C)S(C)(=O)=O)nc(-c2ccc(F)cc2)c1/C=C/[C@@H](O)C[C@@H](O)CC(=O)[O-].[Ca+2] landed at Compound NOT metabolized
